# experimentalSystem: cIAP2-BIR2 (Homo sapiens (Human), UniProt Q13489)
# Sequence (Q13489 158-242): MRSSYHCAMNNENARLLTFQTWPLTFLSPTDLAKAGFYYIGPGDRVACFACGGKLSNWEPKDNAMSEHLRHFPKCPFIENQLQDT
# procedureDetails: BIR binding assay (FRET competition), cIAP2 BIR2
IC50 values for the compounds below.

molecule | IC50
C[C@@H]1CN(CC(=O)N2CC(C)(C)c3[nH]c(=O)c(Cc4ccc(F)cc4)cc32)[C@@H](CN2CCO[C@H](COCCCCCOC[C@@H]3CN(C[C@H]4CN[C@H](C)CN4CC(=O)N4CC(C)(C)c5[nH]c(=O)c(Cc6ccc(F)cc6)cc54)CCO3)C2)CN1 | 1 to 3.16 µM
C[C@@H]1CN(CC(=O)N2CC(C)(C)c3[nH]c(=O)c(Cc4ccc(F)cc4)cc32)[C@@H](CN2CCO[C@H](C(=O)NCCCCCNC(=O)[C@@H]3CN(C[C@H]4CN[C@H](C)CN4CC(=O)N4CC(C)(C)c5[nH]c(=O)c(Cc6ccc(F)cc6)cc54)CCO3)C2)CN1 | 1 to 3.16 µM
C[C@@H]1CN(CC(=O)N2CC(C)(C)c3[nH]c(=O)c(Cc4ccc(F)cc4)cc32)[C@@H](CN2CCN(CCc3cn(CCC(=O)N4CCN(C[C@H]5CN[C@H](C)CN5CC(=O)N5CC(C)(C)c6[nH]c(=O)c(Cc7ccc(F)cc7)cc65)[C@H](C)C4)nn3)C[C@H]2C)CN1 | 1 to 3.16 µM

Pending compound:
Per the record, C[C@@H]1CN(CC(=O)N2CC(C)(C)c3[nH]c(=O)c(Cc4ccc(F)cc4)cc32)[C@@H](CN2CCO[C@@H](COCCCCOC[C@H]3CN(C[C@H]4CN[C@H](C)CN4CC(=O)N4CC(C)(C)c5[nH]c(=O)c(Cc6ccc(F)cc6)cc54)CCO3)C2)CN1 has IC50 of 3.16 to 10 µM

All values here come from patent US20250326771A1.
